- system: Human neutrophil elastase (HNE) (Homo sapiens)
- Sequence (P08246 30-247): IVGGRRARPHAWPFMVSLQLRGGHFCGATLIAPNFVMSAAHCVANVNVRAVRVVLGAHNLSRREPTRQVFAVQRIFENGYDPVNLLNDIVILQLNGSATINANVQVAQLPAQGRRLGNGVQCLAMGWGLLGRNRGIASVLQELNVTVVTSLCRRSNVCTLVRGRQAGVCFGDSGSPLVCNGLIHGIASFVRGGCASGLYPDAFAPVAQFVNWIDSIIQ
- assay info: fluorometric HNE activity assay with MeO-Suc-Ala-Ala-Pro-Val-AMC, […] min preincubation, […] °C

{"query smiles": "CCC1(CC)C(=O)N(c2ccc(C(=O)O)cc2)C1=O", "IC50": "18 nM"}
